Please provide measured PBM binding z-score for the entries that follow.
Test system: PXR:RXRa (NR concentration 270 nM, RXRa partner concentration 90 nM)
Assay: PBM binding z-score (relative to random genomic background probes); higher = stronger binding; sequences stand for … in GC…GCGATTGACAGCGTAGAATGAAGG
Respond numerically, and do not add a unit to the figure.

The sequence listed as "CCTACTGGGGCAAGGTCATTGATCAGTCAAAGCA" has a reported PBM binding z-score of 3.88

Form field PBM binding z-score, entry "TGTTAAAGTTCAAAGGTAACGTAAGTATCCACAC" : 5.77

Reported PBM binding z-score for "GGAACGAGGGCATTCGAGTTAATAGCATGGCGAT" was 3.48

Field PBM binding z-score (entry "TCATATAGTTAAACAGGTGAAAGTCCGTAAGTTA" ) reads 0.848

Lab note: measured PBM binding z-score of "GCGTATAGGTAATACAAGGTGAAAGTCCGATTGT" was 0.699

The sequence listed as "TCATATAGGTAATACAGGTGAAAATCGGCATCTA" shows PBM binding z-score equal to 0.9

For record "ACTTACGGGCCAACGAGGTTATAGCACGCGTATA" the listed PBM binding z-score is 1

Entry "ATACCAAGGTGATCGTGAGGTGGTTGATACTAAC" ; PBM binding z-score = 0.417

The sequence listed as "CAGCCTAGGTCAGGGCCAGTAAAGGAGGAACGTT" has a reported PBM binding z-score of 0.328

GET /value?item= "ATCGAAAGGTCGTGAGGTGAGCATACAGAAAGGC" &field=PBM binding z-score returns 2.77

Form field PBM binding z-score, entry "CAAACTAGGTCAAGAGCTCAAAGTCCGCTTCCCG" : 1.06

So, "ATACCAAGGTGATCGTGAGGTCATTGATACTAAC" ? Its PBM binding z-score was 5.39

Memo: "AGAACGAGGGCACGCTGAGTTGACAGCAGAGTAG" , reported PBM binding z-score: 1.46

Lab note: measured PBM binding z-score of "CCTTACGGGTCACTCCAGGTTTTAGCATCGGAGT" was 3.61

Record "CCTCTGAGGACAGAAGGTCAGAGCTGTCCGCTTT" , field PBM binding z-score: 1.95

Item: "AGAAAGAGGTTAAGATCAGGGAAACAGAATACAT" | PBM binding z-score: 1.37

The sequence identified as "CGACCTAGGTCAAGGACAGTGAATCTCCGCACGC" registered its PBM binding z-score at 1.6

Per the records, this sequence ( "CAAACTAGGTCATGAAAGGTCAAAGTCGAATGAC" ) has PBM binding z-score equal to 7.23

Sure, the documented PBM binding z-score for "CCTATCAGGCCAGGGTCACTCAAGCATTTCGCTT" is 2.59

// PBM binding z-score value for "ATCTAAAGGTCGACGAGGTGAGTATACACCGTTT" : 3.26

The sequence listed as "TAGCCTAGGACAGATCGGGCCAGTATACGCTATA" has a reported PBM binding z-score of -0.732

# PBM binding z-score of "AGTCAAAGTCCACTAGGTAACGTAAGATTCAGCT" = -0.372

Entry under test: "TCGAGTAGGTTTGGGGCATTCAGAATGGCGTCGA" . Its PBM binding z-score was -0.143

Field PBM binding z-score (entry "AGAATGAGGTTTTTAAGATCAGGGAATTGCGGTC" ) reads -0.38

Given item "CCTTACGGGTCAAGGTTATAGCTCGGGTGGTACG" , the value recorded as its PBM binding z-score is 3.16

The sequence listed as "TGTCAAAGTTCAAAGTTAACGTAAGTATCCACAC" shows PBM binding z-score equal to 5.04
